Experiment: Cellular cytotoxicity, 4 days, MTS, MT-2
Type: cell-based
Conditions: human, MT-2 cells (leukemia T cells), Table 21, read-out: Average CC50 Values ± Standard Deviation, MT-2
Value type: CC50 at 4 days (µM)
Provide the reading as a plain figure in µM.

O=C1Nc2ccc(Cl)cc2C(C#CC2CC2)(C(F)(F)F)O1 (centres unmarked) [EFV, reference compound]; 24.6

Reported CC50 at 4 days for CO[P@](=O)(c1cc(C)cc(/C=C/C#N)c1)c1c(C(N)=O)[nH]c2ccc(Cl)cc12 was 25.9

---

A short record of IC50 observed with CYP2D6 (Homo sapiens, UniProt P10635) follows.
Sequence (P10635 whole entry): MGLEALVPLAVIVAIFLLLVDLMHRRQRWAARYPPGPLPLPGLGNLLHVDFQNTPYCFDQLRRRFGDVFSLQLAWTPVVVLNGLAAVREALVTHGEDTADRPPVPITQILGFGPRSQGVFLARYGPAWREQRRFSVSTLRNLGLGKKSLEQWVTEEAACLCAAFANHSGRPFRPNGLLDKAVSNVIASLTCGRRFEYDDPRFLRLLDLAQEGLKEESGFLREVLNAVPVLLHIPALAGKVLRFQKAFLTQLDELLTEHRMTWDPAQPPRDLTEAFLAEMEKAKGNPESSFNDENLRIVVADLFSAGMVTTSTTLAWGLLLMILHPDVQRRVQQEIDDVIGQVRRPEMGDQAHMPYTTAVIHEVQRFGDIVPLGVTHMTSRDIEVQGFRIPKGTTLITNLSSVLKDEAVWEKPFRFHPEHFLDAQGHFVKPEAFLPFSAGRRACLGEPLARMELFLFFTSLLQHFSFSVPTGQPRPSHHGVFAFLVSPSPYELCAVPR

CO[P@](=O)(c1cc(C)cc(/C=C/C#N)c1)c1c(C(N)=O)[nH]c2ccc(Cl)cc12; > 20 µM

Please find the next compound below.
Form: compound = CO[P@](=O)(c1cc(C)cc(/C=C/C#N)c1)c1c(C(N)=O)[nH]c2ccc(Cl)c(F)c12 ; IC50 = > 20 µM
